measured target: human GluN1/GluN2B NMDA receptors (Homo sapiens, UniProt Q05586+Q13224)
Sequence (Q13224 27-1484, other chains not shown): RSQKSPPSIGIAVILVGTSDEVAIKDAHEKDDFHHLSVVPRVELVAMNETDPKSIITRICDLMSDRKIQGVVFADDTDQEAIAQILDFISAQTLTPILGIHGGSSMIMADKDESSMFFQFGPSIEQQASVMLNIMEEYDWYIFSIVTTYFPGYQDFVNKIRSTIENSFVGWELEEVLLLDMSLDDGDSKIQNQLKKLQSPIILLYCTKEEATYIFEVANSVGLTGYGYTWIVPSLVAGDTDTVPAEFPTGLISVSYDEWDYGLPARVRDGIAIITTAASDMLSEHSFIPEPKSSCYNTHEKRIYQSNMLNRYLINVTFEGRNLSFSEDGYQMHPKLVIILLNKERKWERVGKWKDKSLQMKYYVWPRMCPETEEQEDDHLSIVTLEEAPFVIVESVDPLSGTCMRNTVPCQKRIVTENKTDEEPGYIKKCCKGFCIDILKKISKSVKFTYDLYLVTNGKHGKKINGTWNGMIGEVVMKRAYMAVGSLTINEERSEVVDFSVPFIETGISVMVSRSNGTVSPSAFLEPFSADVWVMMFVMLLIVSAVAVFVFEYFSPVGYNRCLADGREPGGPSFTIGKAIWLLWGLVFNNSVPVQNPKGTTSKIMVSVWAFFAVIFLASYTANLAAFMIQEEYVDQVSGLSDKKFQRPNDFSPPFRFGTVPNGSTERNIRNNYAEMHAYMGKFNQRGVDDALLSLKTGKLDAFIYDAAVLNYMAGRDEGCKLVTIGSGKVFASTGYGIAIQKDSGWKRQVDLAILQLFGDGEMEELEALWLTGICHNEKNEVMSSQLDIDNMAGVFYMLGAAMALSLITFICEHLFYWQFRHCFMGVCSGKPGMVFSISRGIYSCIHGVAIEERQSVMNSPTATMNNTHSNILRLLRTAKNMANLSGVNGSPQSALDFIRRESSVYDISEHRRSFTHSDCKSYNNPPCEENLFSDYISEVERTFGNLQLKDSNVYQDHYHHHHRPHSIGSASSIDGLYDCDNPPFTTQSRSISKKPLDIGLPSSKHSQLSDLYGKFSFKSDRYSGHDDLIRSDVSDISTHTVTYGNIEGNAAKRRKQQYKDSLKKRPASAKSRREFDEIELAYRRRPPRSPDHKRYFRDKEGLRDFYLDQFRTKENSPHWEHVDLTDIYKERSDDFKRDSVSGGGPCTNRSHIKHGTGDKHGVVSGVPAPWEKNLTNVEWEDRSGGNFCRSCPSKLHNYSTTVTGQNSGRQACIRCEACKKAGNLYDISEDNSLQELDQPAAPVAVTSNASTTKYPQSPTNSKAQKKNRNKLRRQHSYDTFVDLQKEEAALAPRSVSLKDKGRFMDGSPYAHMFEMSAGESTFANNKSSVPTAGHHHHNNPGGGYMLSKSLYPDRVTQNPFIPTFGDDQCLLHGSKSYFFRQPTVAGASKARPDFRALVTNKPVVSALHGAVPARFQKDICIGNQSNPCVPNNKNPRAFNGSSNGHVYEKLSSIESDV
experiment description: Cell-based calcium flux (FLIPR) assay on cloned human NR1/NR2B ion channels expressed in mammalian cells
assay setup: standard assay; human GluN1/GluN2B, calcium flux (FLIPR), glutamate ~EC80
recorded metric: IC50 (µM)
Kindly provide the numeric value in µM only, without the unit symbol.

Please review the entries below; each comes with its answer.
{"molecule": "Cc1cnc(OCc2cn(-c3ccc(OC(F)F)cc3)nn2)nc1 [Example 333]", "IC50 / µM": 0.087}
{"molecule": "Fc1cccc(-n2cc(COc3ncc(Cl)cn3)nn2)c1 [Example 231]", "IC50 / µM": 0.389}
{"molecule": "Nc1ccnc(OCc2cn(-c3cccc(OC(F)(F)F)c3)nn2)n1 [Example 353]", "IC50 / µM": 0.525}
{"molecule": "Cn1cc(NCc2cn(-c3ccc(F)c(C(F)F)c3)nn2)cn1 [Example 99]", "IC50 / µM": 5.05}
{"molecule": "COCc1ccnc(OCc2cn(-c3ccc(Cl)c(OC(F)F)c3)nn2)n1 [Example 384]", "IC50 / µM": 0.018}
{"molecule": "COc1cnc(OCc2cn(-c3cccc(F)c3)nn2)nc1 [Example 230]", "IC50 / µM": 0.275}

Would you mind telling me what IC50 value was observed for COc1cnc(OCc2cn(-c3ccc(F)c(CCCF)c3)nn2)nc1 [Example 194] ?
0.061

Would you mind telling me what IC50 value was observed for Fc1ccc(-n2cc(COc3ncc(Cl)cn3)nn2)cc1Br [Example 42] ?
0.003

Would you mind telling me what IC50 value was observed for CCc1cnc(OCc2cn(-c3ccc(F)c(C(C)(F)F)c3)nn2)nc1 [Example 67] ?
0.015

Would you mind telling me what IC50 value was observed for Cc1cnc(OC(C)c2cn(-c3ccc(Cl)c(OC(F)F)c3)nn2)nc1 (single isomer, unassigned) [Example 57] ?
0.338

Would you mind telling me what IC50 value was observed for CCc1cnc(OCc2cn(-c3ccc(OC(F)F)cc3)nn2)nc1 [Example 334] ?
0.051

Would you mind telling me what IC50 value was observed for CC(C)(O)c1cnc(OCc2cn(-c3cccc(C(C)(F)F)c3)nn2)nc1 [Example 301] ?
0.119
